// data source = the supplement of paper PMC4862054

System: CAL-120
Experiment: normalised response (% of control), CellTiter-Glo; higher = more viable cells (100 = DMSO, 0 = benzethonium chloride kill control)
Conditions: incubation time: 72 h
Consider the following compounds; for each one, report its normalised response.
The reply should contain only the number, in %.

Please report the recorded normalised response for Oc1ncnc2[nH]ncc12 [Allopurinol] (1000 nM) .
98.8

Please report the recorded normalised response for CC(C)(C)c1cnc(CSc2cnc(NC(=O)C3CCNCC3)s2)o1 [SNS-032] (10 nM) .
96.6

Please report the recorded normalised response for CC1(C)CNc2cc(NC(=O)c3cccnc3NCc3ccncc3)ccc21 [Motesanib] (1 nM) .
94

Please report the recorded normalised response for C[C@]12CC[C@@H]3c4ccc(OC(=O)N(CCCl)CCCl)cc4CC[C@H]3[C@@H]1CC[C@@H]2O [Estramustine] (10 nM) .
103

----------
Tested on: MDA-MB-436
Assay: normalised response (% of control), CellTox Green; higher = less cell death (100 = DMSO, 0 = benzethonium chloride kill control)
Details: incubation time: 72 h
observable: normalised response (%)
The reply should contain only the number, in %.

Please report the recorded normalised response for CC(C)(C)c1cnc(CSc2cnc(NC(=O)C3CCNCC3)s2)o1 [SNS-032] (10000 nM) .
94.2

Please report the recorded normalised response for Cc1sc2c(c1C)C(c1ccc(Cl)cc1)=N[C@@H](CC(=O)OC(C)(C)C)c1nnc(C)n1-2 [(+)JQ1] (10000 nM) .
72.9

Please report the recorded normalised response for Nc1nc2[nH]cnc2c(=S)[nH]1 [Thioguanine] (1000 nM) .
101

Please report the recorded normalised response for Oc1ncnc2[nH]ncc12 [Allopurinol] (10000 nM) .
99.7

Please report the recorded normalised response for O=NN(CCCl)C(=O)NCCCl [Carmustine] (10000 nM) .
88.9

Please report the recorded normalised response for Cn1cnc2c(F)c(Nc3ccc(Br)cc3Cl)c(C(=O)NOCCO)cc21 [Selumetinib] (1000 nM) .
80.4

Please report the recorded normalised response for O=NN(CCCl)C(=O)NCCCl [Carmustine] (100 nM) .
61.7

Please report the recorded normalised response for Cn1cnc2c(F)c(Nc3ccc(Br)cc3Cl)c(C(=O)NOCCO)cc21 [Selumetinib] (10000 nM) .
101

Please report the recorded normalised response for CC[C@@H]1C(=O)OC[C@@H]1Cc1cncn1C [Pilocarpine] (4000 nM) .
81.4

Please report the recorded normalised response for COc1cc2c(cc1O)CC[C@@H]1[C@@H]2CC[C@]2(C)[C@@H](O)CC[C@@H]12 [2-methoxyestradiol] (1000 nM) .
85.5

Please report the recorded normalised response for CC1=C2C[C@H]3[C@@H](CC=C4C[C@@H](O)CC[C@@]43C)[C@@H]2CC[C@]12O[C@@H]1C[C@H](C)CN[C@H]1[C@H]2C [Cyclopamine] (100 nM) .
86

Please report the recorded normalised response for Nc1nc2[nH]cnc2c(=S)[nH]1 [Thioguanine] (100 nM) .
89

Please report the recorded normalised response for CC(=O)N(O)CCCCCNC(=O)CCC(=O)N(O)CCCCCNC(=O)CCC(=O)N(O)CCCCCN [Deferoxamine] (100 nM) .
95.5

Please report the recorded normalised response for CC1(C)CNc2cc(NC(=O)c3cccnc3NCc3ccncc3)ccc21 [Motesanib] (1000 nM) .
79

Please report the recorded normalised response for CC(=O)c1c(C)c2cnc(Nc3ccc(N4CCNCC4)cn3)nc2n(C2CCCC2)c1=O [Palbociclib] (1000 nM) .
100

Please report the recorded normalised response for COc1cc2c(cc1O)CC[C@@H]1[C@@H]2CC[C@]2(C)[C@@H](O)CC[C@@H]12 [2-methoxyestradiol] (100 nM) .
87.4

Please report the recorded normalised response for C[C@]1(O)C[C@@H](c2nc(-c3ccc4ccc(-c5ccccc5)nc4c3)c3c(N)nccn32)C1 [Linsitinib] (100 nM) .
52.9

Please report the recorded normalised response for Cn1cc(C2=Nc3cc(NC(=O)C(N)C4CCCCC4)cc4c3C2=CNNC4=O)cn1 (stereo not drawn) (1000 nM) .
85

----------
Test system: MFM-223
Test: normalised response (% of control), CellTox Green; higher = less cell death (100 = DMSO, 0 = benzethonium chloride kill control)
Conditions: incubation time: 72 h
observable: normalised response (%)
The reply should contain only the number, in %.

Please report the recorded normalised response for Cc1sc2c(c1C)C(c1ccc(Cl)cc1)=N[C@@H](CC(=O)OC(C)(C)C)c1nnc(C)n1-2 [(+)JQ1] (1000 nM) .
98.1

Please report the recorded normalised response for COc1cc(F)c(F)c(Nc2ccc(I)cc2F)c1NS(=O)(=O)C1(C[C@H](O)CO)CC1 [Refametinib] (100 nM) .
97.7

Please report the recorded normalised response for Cn1cnc2c(F)c(Nc3ccc(Br)cc3Cl)c(C(=O)NOCCO)cc21 [Selumetinib] (100 nM) .
94.9

Please report the recorded normalised response for Oc1ncnc2[nH]ncc12 [Allopurinol] (10000 nM) .
94.1

Please report the recorded normalised response for Nc1nc2[nH]cnc2c(=S)[nH]1 [Thioguanine] (10000 nM) .
103

Please report the recorded normalised response for CC1=C2C[C@H]3[C@@H](CC=C4C[C@@H](O)CC[C@@]43C)[C@@H]2CC[C@]12O[C@@H]1C[C@H](C)CN[C@H]1[C@H]2C [Cyclopamine] (1000 nM) .
75.1

Please report the recorded normalised response for Nc1nc2[nH]cnc2c(=S)[nH]1 [Thioguanine] (100 nM) .
98.7

Please report the recorded normalised response for O=C1CN2Cc3c(ccc(Cl)c3Cl)N=C2N1 [Anagrelide] (10000 nM) .
69.6

Please report the recorded normalised response for CC1=C2C[C@H]3[C@@H](CC=C4C[C@@H](O)CC[C@@]43C)[C@@H]2CC[C@]12O[C@@H]1C[C@H](C)CN[C@H]1[C@H]2C [Cyclopamine] (100 nM) .
107

Please report the recorded normalised response for Nc1ncn([C@@H]2O[C@H](CO)[C@@H](O)[C@H]2O)c(=O)n1 [Azacitidine] (1000 nM) .
89.6

Please report the recorded normalised response for Cc1sc2c(c1C)C(c1ccc(Cl)cc1)=N[C@@H](CC(=O)OC(C)(C)C)c1nnc(C)n1-2 [(+)JQ1] (10000 nM) .
97.8

Please report the recorded normalised response for Nc1ncn([C@@H]2O[C@H](CO)[C@@H](O)[C@H]2O)c(=O)n1 [Azacitidine] (100 nM) .
97.8

Please report the recorded normalised response for CC(=O)N(O)CCCCCNC(=O)CCC(=O)N(O)CCCCCNC(=O)CCC(=O)N(O)CCCCCN [Deferoxamine] (10000 nM) .
101

Please report the recorded normalised response for Cn1cc(C2=Nc3cc(NC(=O)C(N)C4CCCCC4)cc4c3C2=CNNC4=O)cn1 (centres undefined) (1000 nM) .
87.6

Please report the recorded normalised response for CC1(C)CCC(CN2CCN(c3ccc(C(=O)NS(=O)(=O)c4ccc(NCC5CCOCC5)c([N+](=O)[O-])c4)c(Oc4cnc5[nH]ccc5c4)c3)CC2)=C(c2ccc(Cl)cc2)C1 [ABT-199] (100 nM) .
79.9

Please report the recorded normalised response for CC(=O)N(O)CCCCCNC(=O)CCC(=O)N(O)CCCCCNC(=O)CCC(=O)N(O)CCCCCN [Deferoxamine] (1000 nM) .
70.8

Please report the recorded normalised response for C[C@]1(O)C[C@@H](c2nc(-c3ccc4ccc(-c5ccccc5)nc4c3)c3c(N)nccn32)C1 [Linsitinib] (1000 nM) .
96.5

Please report the recorded normalised response for C[C@]1(O)C[C@@H](c2nc(-c3ccc4ccc(-c5ccccc5)nc4c3)c3c(N)nccn32)C1 [Linsitinib] (10000 nM) .
89.9

Please report the recorded normalised response for CC1(C)CNc2cc(NC(=O)c3cccnc3NCc3ccncc3)ccc21 [Motesanib] (1000 nM) .
97

----------
Consider the following molecules; for each one, report its normalised viability.
Tested on: MFM-223
Assay: normalised viability (% of control), CellTiter-Blue; higher = more viable cells (100 = DMSO, 0 = benzethonium chloride kill control)
Conditions: incubation time: 72 h
The reply should contain only the number, in %.

Please report the recorded normalised viability for Oc1ncnc2[nH]ncc12 [Allopurinol] (1 nM) .
96.2

Please report the recorded normalised viability for Cc1sc2c(c1C)C(c1ccc(Cl)cc1)=N[C@@H](CC(=O)OC(C)(C)C)c1nnc(C)n1-2 [(+)JQ1] (1 nM) .
102

Please report the recorded normalised viability for COc1cc(F)c(F)c(Nc2ccc(I)cc2F)c1NS(=O)(=O)C1(C[C@H](O)CO)CC1 [RDEA119] (1 nM) .
92.5

Please report the recorded normalised viability for CC(C)(C)c1cnc(CSc2cnc(NC(=O)C3CCNCC3)s2)o1 [SNS-032] (1 nM) .
93.1

Please report the recorded normalised viability for COc1cc2c(cc1O)CC[C@@H]1[C@@H]2CC[C@]2(C)[C@@H](O)CC[C@@H]12 [2-methoxyestradiol] (1 nM) .
102

Please report the recorded normalised viability for CC1=C2C[C@H]3[C@@H](CC=C4C[C@@H](O)CC[C@@]43C)[C@@H]2CC[C@]12O[C@@H]1C[C@H](C)CN[C@H]1[C@H]2C [Cyclopamine] (1 nM) .
97.5
